System: galium (catchweed bedstraw, Galium aparine)
experimental_details: Test C pre-/postemergence greenhouse test
Type: in vivo
settings: Preemergence, 125 g ai/ha; scale 0 to 100
metric: Plant response rating, Galium
The answer should be a number; do not append a unit.

The recorded Plant response rating, Galium for entry `Cc1ccc2ccc(Cl)cc2c1-c1c(O)c(Cl)nn(C)c1=O` equals 95

The recorded Plant response rating, Galium for entry `Cc1ccc2ccc(C)c(-c3c(O)c(Cl)nn(C)c3=O)c2c1` equals 100

The recorded Plant response rating, Galium for entry `Cc1cc(Cl)c2ccccc2c1-c1c(O)c(Cl)nn(C)c1=O` equals 100

The recorded Plant response rating, Galium for entry `Cc1ccc2ccc(F)cc2c1-c1c(O)c(Cl)nn(C)c1=O` equals 95
